Taken from paper PMC9482650.

tested-on: T1, HTRA4, P83105
T1 sequence (P83105 378-476, limits assumed, looked up): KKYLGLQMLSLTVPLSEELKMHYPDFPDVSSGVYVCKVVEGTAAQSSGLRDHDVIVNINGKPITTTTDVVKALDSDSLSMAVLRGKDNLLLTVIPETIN
protocol-summary: holdup assay
Design: key: below the threshold = too weak to quantify, mostly under pKd 3.1 to 4
condition-context: plain residues with an end cap or a label only (N-terminal biotin on a linker: ado-ado)
experimental-endpoint: pKd

binder: QSGLYESEEL [MYOT, Q9UBF9]
experimental-result: 3.69
//
binder: PPGKHLVTEV [KCNA7, Q96RP8]
experimental-result: 4.61
//
binder: DTKNYKQTSV [CRIPT, Q9P021]
experimental-result: 3.95
//
binder: VLYPREGTEV [FOXI1, Q12951]
experimental-result: 4.29
//
binder: NVYGIESVKI [GRIA2, P42262]
experimental-result: 3.74
//
binder: RFQQRMQTHV [KIRREL1, Q96J84]
experimental-result: 4.14
//
binder: RDPPAEWTRV [PTPN18, Q99952]
experimental-result: 4.01
//
binder: LPAVCYDIDI [PTTG2, Q9NZH5]
experimental-result: 3.96
//
binder: NNNVVKVDSV [MTNR1A, P48039]
experimental-result: 3.82
//
binder: TGLWKHETTV [ADGRA3, Q8IWK6]
experimental-result: 4.15
//
binder: DGVNEKVSCV [HTR2A, P28223]
experimental-result: 3.71
//
binder: PSVGSKKTVL [REELD1, A0A1B0GV85]
experimental-result: 3.91
//
binder: LAHVKHKEQI [AQP3, Q92482]
experimental-result: 3.79
//
binder: MHIQEKGFHV [EPHA6, Q9UF33]
experimental-result: 3.49
//
binder: NTLNRKTTPV [CACNG8, Q8WXS5]
experimental-result: 3.94
